- study.target: T1, Fc-tagged human Glypican 3 protein (Acro Biosystems, cat #GP3-H5258) (human, UniProt P51654 25-559)
- T1 construct: Bought; also called recombinant human GPC3; not shown: Fc tag
- T1 sequence (P51654 25-559 limits assumed): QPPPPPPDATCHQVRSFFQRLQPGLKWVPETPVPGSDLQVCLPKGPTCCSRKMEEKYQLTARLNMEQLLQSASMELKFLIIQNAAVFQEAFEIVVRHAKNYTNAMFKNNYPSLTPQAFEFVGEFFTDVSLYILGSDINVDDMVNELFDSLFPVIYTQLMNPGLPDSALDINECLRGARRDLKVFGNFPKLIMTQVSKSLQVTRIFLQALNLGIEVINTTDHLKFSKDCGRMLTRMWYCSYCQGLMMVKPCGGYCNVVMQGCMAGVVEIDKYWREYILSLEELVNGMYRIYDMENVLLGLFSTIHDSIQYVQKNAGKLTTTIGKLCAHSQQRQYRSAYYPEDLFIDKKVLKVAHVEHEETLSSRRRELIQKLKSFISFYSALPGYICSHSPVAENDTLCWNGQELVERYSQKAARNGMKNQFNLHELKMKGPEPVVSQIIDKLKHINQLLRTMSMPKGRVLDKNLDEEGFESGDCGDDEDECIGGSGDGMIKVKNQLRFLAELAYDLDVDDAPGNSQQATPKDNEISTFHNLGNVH
- experiment.summary: ELISA, Fab titrated on coated Fc-tagged human GPC3, anti-Lambda HRP detection
measurement.kind: EC50 (ng/mL)
Answer format: numeric, ng/mL implied, no suffix.

[[record]]
binder = "P17-15D5 Fab (Fab, V domains shown, Fab format) VH: EVQLVESGGGLVQPGGSLRLSCAASGFTFANYAMSWVRQAPGKGLEWVSDVSASGVGTYYADSVKGRFTISRDNSKNTLYLQMNSLRAEDTAVYYCAKEVDFKLGWMHYYYGMDVWGQGTTVTVSS VL: QSVLTQPPSVSGAPGQRVTISCTGSSSGYDVHWYQQLPGRAPKLLIYGSNNRPSGVPDRFSGSNSGTSASLAITGLQAEDEADYYCQSYDSSLNAIFGGGTKLTVL"
measurement_kind = "EC50"
number = 9

[[record]]
binder = "P17-16A11 Fab (Fab, V domains shown, Fab format) VH: EVQLVESGGGLVQPGGSLRLSCAASGFTFDRYAMSWVRQAPGKGLEWVSSLSASGSGTYYADSVKGRFTISRDNSKNTLYLQMNSLRAEDTAVYYCAKEYDFSYGWMHYYYGMDVWGQGTTVTVSS VL: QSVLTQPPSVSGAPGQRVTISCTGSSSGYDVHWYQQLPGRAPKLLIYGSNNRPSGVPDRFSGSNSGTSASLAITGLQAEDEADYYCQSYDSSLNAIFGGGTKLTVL"
measurement_kind = "EC50"
number = 8.7


Please look at the following binder next.
**Q:** State its EC50: P17-13G2 Fab (Fab, V domains shown, Fab format) VH: EVQLVESGGGLVQPGGSLRLSCAASGFTFGEYAMSWVRQAPGKGLEWVSGMSGSGDGTYYADSVKGRFTISRDNSKNTLYLQMNSLRAEDTAVYYCAKEMDYQLGWMHYYYGMDVWGQGTTVTVSS VL: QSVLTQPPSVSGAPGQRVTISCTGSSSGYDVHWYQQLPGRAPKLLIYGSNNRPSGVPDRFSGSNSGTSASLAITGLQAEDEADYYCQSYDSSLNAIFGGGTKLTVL
**A:** 8.4
